Tested on: Aspergillus fumigatus ATCC 13073
Test: microbe, parasite or virus in culture
Conditions: Aspergillus fumigatus, ATCC13073, 72 h, pH 7, read-out: MIC A. fumigatus
# MIC values compiled below

Some solved entries appear below for comparison.
smiles_data: O=C1/C(=C/c2ccc(-c3cc(Cl)ccc3Cl)o2)C=C(c2ccccc2)N1c1ccccc1O
MIC: > 150 µM

smiles_data: Oc1cccc(Nc2nc(-c3ccc(Cl)c(Cl)c3)cs2)c1
MIC: > 150 µM

Req: Missing value: MIC, Aspergillus fumigatus ATCC 13073, entry `O=C1C=CC(=O)N1c1cccc2ccccc12` . Fill in?
Resp: 99 µM

* * *

Biological target: Na^+,K^+-ATPase (Sus scrofa, UniProt P05024)
Construct: from tissue; host or cells: porcine kidney (gift of Natalya Fedosova, Aarhus University)
Assay: ATP hydrolysis assay, Na+,K+-ATPase
Type: biochemical, porcine
Conditions: Table 1; ATP hydrolysis at pH 7.4 (compounds marked b); read-out: IC50 Na^+,K^+-ATPase
pIC50: −log10 of the molar value.
So basically: pIC50 at 5 or higher? That is true. Lower than 5? That is false.

compound: Cc1c(-c2ccccc2)[o+]c2ccccc2c1C#Cc1ccccc1
assigned_category: true

Req: Could you verify whether the entry `Oc1cccc(Nc2nc(-c3ccc(Cl)c(Cl)c3)cs2)c1` shows pIC50 of no less than 5?
Resp: true

Req: Could you verify whether the entry `O=C1C=CC(=O)N1c1cccc2ccccc12` shows pIC50 of no less than 5?
Resp: false

Req: Could you verify whether the entry CC1CCCCN1CC(O)Cn1c(-c2ccccc2)c(-c2ccccc2)c2ccc3ccccc3c21 (stereo not drawn) shows pIC50 of no less than 5?
Resp: false

Req: Could you verify whether the entry `CCOc1ccc2nc3cc(NC(=O)c4cccc(Br)c4)ccc3c(N)c2c1` shows pIC50 of no less than 5?
Resp: true
